assay_details: NCI Yeast Anticancer Drug Screen. Data for the mec2-1 strain (AID 157)
setup_conditions: S. cerevisiae mec2-1 strain, at 50.0 µM, hits give high values
About 79,000 compounds went through this panel and 15% of them were active in at least one assay; those are over-represented in the sample as a whole. Where a SMILES comes first, the peptide text is derived from it. Bridges are numbered along the chain shown (N, C = ends). [ ]: non-standard residue; d: D form. The star is where a group is joined. ξ: configuration not given here. PhAc = O=C(Cc1ccccc1)*; ξP = O=C(O)C1CCCN1
measurement_type: growth inhibition (%)
Hi! Could you send only the number? It should be in %, unit omitted.

Asked: So what's the measured growth inhibition for this one? ClC1=C(Cl)C2(Cl)CC1(Cl)C1CCCCC12 (stereo not given)
Given back: -10.4

Asked: So what's the measured growth inhibition for this one? "CCCC(CCC)(C(=O)O)C(=O)O"
Given back: -25.1

Asked: So what's the measured growth inhibition for this one? CCOC(=O)CC1CC(C)(C(=O)OCC)C(=O)CC1=O (stereo not given)
Given back: -4.9

Asked: So what's the measured growth inhibition for this one? "COC(CN(C)C(=S)Nc1cccc2ccccc12)OC"
Given back: -74

Asked: So what's the measured growth inhibition for this one? "Cc1c(C(=O)/C=C/c2ccc(N(C)C)cc2)c(=O)n(-c2ccccc2)n1C"
Given back: -45.1

Asked: So what's the measured growth inhibition for this one? "Cn1ccc2c(C(=O)c3ccccc3)cccc2c1=O"
Given back: -5.7

Asked: So what's the measured growth inhibition for this one? "Cc1cc(Cl)ccc1N=Cc1ccc(C=Nc2ccc(Cl)cc2C)cc1"
Given back: 3.6

Asked: So what's the measured growth inhibition for this one? CCN(CC)CCC(O)(Cc1ccccc1)c1cccc(Cl)c1 (stereo not given)
Given back: 7.95

Asked: So what's the measured growth inhibition for this one? "COC(=O)c1sc2ccccc2c1C"
Given back: -3.6

Asked: So what's the measured growth inhibition for this one? "CCOc1ccccc1NC(=O)c1ccc(Cl)cc1"
Given back: 18

Asked: So what's the measured growth inhibition for this one? "N=C(N)c1ccc(NC(=O)c2ccc(C(=O)Nc3ccc(C(=N)N)cc3)c(N)c2)cc1"
Given back: 18.1

Asked: So what's the measured growth inhibition for this one? "O=[N+]([O-])c1ccc(OCC#CCOc2ccc([N+](=O)[O-])c(C(F)(F)F)c2)cc1C(F)(F)F"
Given back: -13.6

Asked: So what's the measured growth inhibition for this one? "CC(C)CNN(CC(C)C)C(N)=O"
Given back: -25

Asked: So what's the measured growth inhibition for this one? "CCOCCOC(=O)CCCCCCCCC(=O)OCCOCC"
Given back: 11.9

Asked: So what's the measured growth inhibition for this one? "OCCS"
Given back: 5.25

Asked: So what's the measured growth inhibition for this one? "CCOc1ccccc1NCN1C(=O)c2ccccc2C1=O"
Given back: -35.1

Asked: So what's the measured growth inhibition for this one? "Cn1nnnc1NN(c1nnnn1C)C1C=CCC=C1"
Given back: -6

Asked: So what's the measured growth inhibition for this one? "COc1cccc(Oc2ccc(C)cc2)c1"
Given back: -12.8

Asked: So what's the measured growth inhibition for this one? "Clc1ccc2nsnc2c1Cl"
Given back: -1.25

Asked: So what's the measured growth inhibition for this one? CCOC(=O)C(=O)C(/C(=N/N(C)C)C(=O)Nc1ccc(C)cc1C)c1nc2ccccc2[nH]c1=O (stereo not given)
Given back: -22.1

Asked: So what's the measured growth inhibition for this one? CC12CCC3[C@@H](CC3(C)C)C(O)(CCC1=O)C2 (stereo not given in full)
Given back: -9.35

Asked: So what's the measured growth inhibition for this one? "COc1cc(-c2cc(=O)c3c(O)c(OC)c(OC)cc3o2)ccc1O"
Given back: -40.2

Asked: So what's the measured growth inhibition for this one? "O=C(CCc1ccccc1CO)NCCc1ccccc1"
Given back: 20.9

Asked: So what's the measured growth inhibition for this one? Cc1ccc(Cl)cc1NC(=O)C(Br)C(Br)c1ccccc1 (stereo not given)
Given back: -7.7

Asked: So what's the measured growth inhibition for this one? "Cc1cc2c(=O)cc(-c3ccncc3)oc2c(C(=O)O)c1C"
Given back: 0.2

Asked: So what's the measured growth inhibition for this one? CCOC(=O)C(=O)C(CCc1ccc2ccc3cccc4ccc1c2c34)C(=O)OCC (stereo not given)
Given back: 20.9

Asked: So what's the measured growth inhibition for this one? "CC(=O)Nc1cccc(Oc2ccc(Cl)cc2[N+](=O)[O-])c1"
Given back: -6.6

Asked: So what's the measured growth inhibition for this one? "O=C1CC2(CC(=O)N1CCc1c[nH]c3ccccc13)OCCO2"
Given back: 9.05

Asked: So what's the measured growth inhibition for this one? "O=C(OCc1ccccc1)C1(N2CN(C3(C(=O)OCc4ccccc4)CCCC3)CN(C3(C(=O)OCc4ccccc4)CCCC3)C2)CCCC1"
Given back: -5.7

Asked: So what's the measured growth inhibition for this one? CN(C)CC(O)CO (stereo not given)
Given back: -4

Asked: So what's the measured growth inhibition for this one? "O=C(O)CCc1ccc2c(c1)C(=O)CC2"
Given back: -27.9

Asked: So what's the measured growth inhibition for this one? O=C(O)C1CC2CC2C1 (stereo not given)
Given back: 12

Asked: So what's the measured growth inhibition for this one? "Cc1ccc(C(C)(CCC(=O)O)c2ccc(C)o2)o1"
Given back: 12.2

Asked: So what's the measured growth inhibition for this one? "COc1ccc(/C=C2\N=C(c3ccc([N+](=O)[O-])cc3)OC2=O)cc1"
Given back: -6

Asked: So what's the measured growth inhibition for this one? "CCCCn1nnnc1N"
Given back: 6.4

Asked: So what's the measured growth inhibition for this one? CCN(CC)CC(Oc1ccccc1)C(=O)c1ccccc1 (stereo not given)
Given back: -15.7

Asked: So what's the measured growth inhibition for this one? O=C(Cc1ccccc1)N[C@@H]1COC(=O)C2CCCN2C(=O)[C@@H]2CCCN2C1=O (stereo not given in full) (PhAc-[dS]-Pro-[ξP]; ester 1-C)
Given back: -1.7

Asked: So what's the measured growth inhibition for this one? "C/C(=C1\C(=O)Nc2ccccc21)c1cccnc1"
Given back: -9.25

Asked: So what's the measured growth inhibition for this one? "COc1ccc(C(=O)N=Nc2ccccc2)cc1"
Given back: 0.7

Asked: So what's the measured growth inhibition for this one? "CCOC(=O)C1=C(C)NC(C)=C(C(=O)OCC)C1"
Given back: -5.8

Asked: So what's the measured growth inhibition for this one? "OCCCCCCO"
Given back: -15.6

Asked: So what's the measured growth inhibition for this one? "[N-]=[N+]=Nc1ccccc1-c1ccccc1[N+](=O)[O-]"
Given back: -6.3

Asked: So what's the measured growth inhibition for this one? N#CC(NCCCNC(C#N)c1ccccc1)c1ccccc1 (stereo not given)
Given back: 5.05

Asked: So what's the measured growth inhibition for this one? C/C1=C/C2=CC(C)C[C@@H]2C(=O)[C@]2(C)C(=O)CC(C)(C)[C@H]2CC1=O (stereo not given in full)
Given back: -8.6

Asked: So what's the measured growth inhibition for this one? CC(C)(C)C1CCC(=NO)CC1 (stereo not given)
Given back: 16.1

Asked: So what's the measured growth inhibition for this one? "Cc1c(O)nc(N)[nH]c1=O"
Given back: -24

Asked: So what's the measured growth inhibition for this one? "Nc1c(S(=O)(=O)O)cc(Br)c2c1C(=O)c1ccccc1C2=O"
Given back: 15.8

Asked: So what's the measured growth inhibition for this one? CC1(C)C2CCC1(C)C(OC(=O)C1OC(O)C(O)C(O)C1O)C2 (stereo not given)
Given back: 24.9

Asked: So what's the measured growth inhibition for this one? COc1cc2c(cc1OC)C1c3cc(OC)c(OC)cc3CC(=O)N1CC2 (stereo not given)
Given back: 7.1

Asked: So what's the measured growth inhibition for this one? CC1CCCN(C(=O)Nc2ccccc2)C1 (stereo not given)
Given back: -0.8
